// pest or weed control at 500 g/ha lookup, one value per entry
Tested on: velvetleaf (Abutilon theophrasti)
Test: Test A pre-/postemergence plant response
Format: in vivo
Details: Abutilon theophrasti, post-emergence, 240 h; Postemergence, 500 g ai/ha; 0 to 100 scale, 0 = no effect, 100 = complete control; approx. ten days; read-out: Plant response rating, Velvetleaf

CCn1ncc(C(=O)c2cnc(-c3ccccc3)n(Cc3ccccc3)c2=O)c1O [Compound 20]    70%
Cc1c(F)cccc1-n1c(-c2ccccc2)ncc(C(=O)C2=C(O)CCCC2=O)c1=O [Compound 47]    100%
CCn1ncc(C(=O)c2cnc(-c3ccccc3)n(Cc3ccccc3)c2=O)c1OS(=O)(=O)c1ccc(C)cc1 [Compound 21]    70%

Next up:
Q) I would be grateful if you could share the reported pest or weed control at 500 g/ha for O=C1CCCC(O)=C1C(=O)c1cnc(-c2ccccc2)n(-c2ccccc2)c1=O [Compound 2] .
A) 100%

* * *

System: morningglory (Ipomoea spp.)
Assay: Test A pre-/postemergence plant response
Format: in vivo
Settings: Preemergence, 500 g ai/ha; 0 to 100 scale, 0 = no effect, 100 = complete control
quantity-measured: Plant response rating, Morningglory
// no unit string in output, number only

Worked cases, Plant response rating, Morningglory given:
O=C1CCCC(O)=C1C(=O)c1cnc(-c2ccsc2)n(C2CCOCC2)c1=O    90
COc1ccc(-n2c(-c3cccc(C)c3)ncc(C(=O)C3=C(O)CCCC3=O)c2=O)cc1    80
CCn1c(-c2cccc(F)c2)ncc(C(=O)C2=C(O)C3CCC(C3)C2=O)c1=O (centres unmarked)    80

Q) I would be grateful if you could share the reported Plant response rating, Morningglory for O=C(C1=C(O)C2CCC(C2)C1=O)c1cnc(-c2ccccc2)n(C2CCCCCCCCCCC2)c1=O (centres unmarked) .
A) 0

Q) I would be grateful if you could share the reported Plant response rating, Morningglory for O=C(C1=C(O)C2CCC(C2)C1=O)c1cnc(-c2cc(F)cc(F)c2)n(-c2ccccc2)c1=O (centres unmarked) .
A) 60

Q) I would be grateful if you could share the reported Plant response rating, Morningglory for `COc1cccc(-c2ncc(C(=O)C3=C(O)CCCC3=O)c(=O)n2C2CCCCC2)c1` .
A) 40

Q) I would be grateful if you could share the reported Plant response rating, Morningglory for `Cc1cc(F)ccc1-n1c(-c2cccc(Cl)c2)ncc(C(=O)C2=C(O)CCCC2=O)c1=O` .
A) 0

Q) I would be grateful if you could share the reported Plant response rating, Morningglory for `Cc1ccccc1-n1c(-c2cccc(Br)c2)ncc(C(=O)C2=C(O)CCCC2=O)c1=O` .
A) 30

* * *

// Plant response rating, Cocklebur lookup, one value per entry
System: cocklebur (Xanthium strumarium)
Test: Test B pre-/postemergence plant response
Format: in vivo
Conditions: 31 g ai/ha, postemergence; scale 0 to 100, 0 is no effect, 100 is complete control
// no unit string in output, number only

CCCc1ncc(C(=O)C2=C(O)CCCC2=O)c(=O)n1CCC [Compound 72]    75
COCCn1c(-c2cccs2)ncc(C(=O)C2=C(O)CCCC2=O)c1=O [Compound 108]    75
O=C1CCCC(O)=C1C(=O)c1cnc(-c2ccc(Br)cc2)n(-c2ccccc2)c1=O [Compound 70]    0
Cc1cccc(-n2c(-c3ccccc3)ncc(C(=O)C3=C(O)CCCC3=O)c2=O)c1F [Compound 58]    85

Next up:
Q) I would be grateful if you could share the reported Plant response rating, Cocklebur for O=C1CCCC(O)=C1C(=O)c1cnc(-c2cccs2)n(CC2CCCO2)c1=O (centres unmarked) [Compound 109] .
A) 75
